system-under-test: Protein deacetylase HDAC6 (Mus musculus)
Sequence (Q9Z2V5 whole entry): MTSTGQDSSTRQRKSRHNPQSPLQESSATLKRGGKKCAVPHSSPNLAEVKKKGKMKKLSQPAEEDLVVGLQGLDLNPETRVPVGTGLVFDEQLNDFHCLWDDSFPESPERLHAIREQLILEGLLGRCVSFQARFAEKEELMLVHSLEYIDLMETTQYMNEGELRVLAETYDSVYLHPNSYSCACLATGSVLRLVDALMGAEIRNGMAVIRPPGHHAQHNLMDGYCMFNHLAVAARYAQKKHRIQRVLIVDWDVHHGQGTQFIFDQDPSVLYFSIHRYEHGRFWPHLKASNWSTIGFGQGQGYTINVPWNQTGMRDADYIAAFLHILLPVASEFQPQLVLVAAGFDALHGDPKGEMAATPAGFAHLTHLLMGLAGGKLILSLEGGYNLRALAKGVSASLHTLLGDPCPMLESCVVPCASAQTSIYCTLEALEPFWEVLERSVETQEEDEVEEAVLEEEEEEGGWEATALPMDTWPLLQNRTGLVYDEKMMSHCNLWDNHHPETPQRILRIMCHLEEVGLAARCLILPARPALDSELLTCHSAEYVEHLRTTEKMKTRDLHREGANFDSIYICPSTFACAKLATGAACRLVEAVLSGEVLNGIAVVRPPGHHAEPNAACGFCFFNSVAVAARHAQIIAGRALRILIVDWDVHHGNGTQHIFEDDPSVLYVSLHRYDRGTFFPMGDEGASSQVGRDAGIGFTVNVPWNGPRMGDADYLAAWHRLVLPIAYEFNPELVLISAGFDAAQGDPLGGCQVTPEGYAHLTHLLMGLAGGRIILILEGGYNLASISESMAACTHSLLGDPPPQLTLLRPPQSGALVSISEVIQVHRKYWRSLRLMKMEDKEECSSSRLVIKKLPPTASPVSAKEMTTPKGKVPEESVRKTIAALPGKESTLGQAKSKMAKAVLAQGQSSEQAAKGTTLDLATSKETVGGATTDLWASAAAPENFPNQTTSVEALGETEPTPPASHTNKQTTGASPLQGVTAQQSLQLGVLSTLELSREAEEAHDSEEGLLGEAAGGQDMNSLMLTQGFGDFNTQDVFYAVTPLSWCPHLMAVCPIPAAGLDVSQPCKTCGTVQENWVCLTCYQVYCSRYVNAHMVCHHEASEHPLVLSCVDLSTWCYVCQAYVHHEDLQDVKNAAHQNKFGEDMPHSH
assay: Inhibition of recombinant mouse HDAC6 expressed in HEK293T cells co-expressing mouse HDA2 using Ac-KGLGK(Ac)-MCA as substrate after 30 mins in presence of DTT by fluorescence assay
reported-metric: IC50 (µM)
Give bare numbers, in µM.

* Cc1cn([C@H]2C[C@H](C3(c4ccc(NC(=O)CCCCCCC(=O)NO)cc4)SCCCS3)[C@@H](CO[Si](C)(C)C(C)(C)C)O2)c(=O)[nH]c1=O | 0.051

Now turn to the next compound.
For the compound Cc1cn([C@@H]2C[C@H](C3(c4ccc(NC(=O)CCCCCCC(=O)NO)cc4)SCCCS3)[C@@H](CO[Si](C)(C)C(C)(C)C)O2)c(=O)[nH]c1=O , what IC50 is on record?
0.044

###

system-under-test: Histone deacetylase 1 (Homo sapiens, UniProt Q13547)
Sequence (Q13547 whole entry): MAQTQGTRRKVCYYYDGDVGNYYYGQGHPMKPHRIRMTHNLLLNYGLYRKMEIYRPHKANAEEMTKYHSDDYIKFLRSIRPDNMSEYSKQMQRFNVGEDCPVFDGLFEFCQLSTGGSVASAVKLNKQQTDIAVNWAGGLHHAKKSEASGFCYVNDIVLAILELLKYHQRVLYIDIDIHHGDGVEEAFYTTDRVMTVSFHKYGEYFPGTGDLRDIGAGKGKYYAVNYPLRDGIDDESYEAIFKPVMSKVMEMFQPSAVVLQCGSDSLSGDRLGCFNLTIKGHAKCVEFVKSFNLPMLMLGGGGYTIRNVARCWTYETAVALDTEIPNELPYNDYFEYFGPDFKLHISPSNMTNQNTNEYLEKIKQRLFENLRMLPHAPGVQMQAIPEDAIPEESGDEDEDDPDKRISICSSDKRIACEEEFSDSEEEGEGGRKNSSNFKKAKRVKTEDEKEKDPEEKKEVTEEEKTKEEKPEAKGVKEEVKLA
assay: Inhibition of recombinant human HDAC1 expressed in HEK293T cells using Ac-KGLGK(Ac)-MCA as substrate after 30 mins in presence of DTT by fluorescence assay
I'd appreciate it if you could supply pIC50 values for the items below.
Give bare numbers, as −log10 of the molar value.

- CC(/C=C/C(=O)NO)=C\C(C)C(=O)c1ccc(C2([C@H]3CC(=O)O[C@@H]3CO[Si](C)(C)C(C)(C)C)SCCCS2)cc1 (stereo partly drawn): 5.92

Now turn to the next compound.
For the compound Cc1cn([C@H]2C[C@H](C3(c4ccc(NC(=O)CCCCCC(=O)NO)cc4)SCCCS3)[C@@H](CO[Si](C)(C)C(C)(C)C)O2)c(=O)[nH]c1=O , what pIC50 is on record?
6.05
